Listed below: protein stability index values for each entry.
B1: OAS1 (parent)
chain: LTVYAWERGSMKTHFNTAQGFRTV

- Variants of: B1
- protocol_summary: protein stability index of a GFP-peptide fusion (GPS, HEK-293T) (PSI 1-6); higher = more stable;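 note: lentivirally expressed fusions sorted by FACS into six bins by GFP to DsRed ratio, PSI derived from sequencing read proportions per bin multiplied by bin number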
- assay_context: c terminus: a fixed tail appended
measure: protein stability index

mutation_annotation=G20L test_value=3.19
mutation_annotation=H14M test_value=3.15
mutation_annotation=F21M test_value=1.9
mutation_annotation=H14I test_value=2.29
mutation_annotation=V24Y test_value=2.51
mutation_annotation=M11E test_value=2.27
mutation_annotation=T17R test_value=2.38
mutation_annotation=E7H test_value=2.41
mutation_annotation=F21S test_value=2.42
mutation_annotation=R8T test_value=3.1
mutation_annotation=N16S test_value=3.5
